Compiled record: IC50 values for RAC-beta serine/threonine-protein kinase (Homo sapiens, UniProt P31751) across several sources.

# count of solved cases: 6
# structure, IC50
records = [
    ("C=CC(=O)Nc1cccc(-c2cn(C3CCN(Cc4ccc(-c5nc6ccccn6c5-c5ccccc5C)cc4)CC3)nn2)c1", "> 20 µM"),
    ("C=CC(=O)Nc1ccc(-c2cn(C3CCN(Cc4ccc(-c5nc6ccccn6c5-c5ccccc5C)cc4)CC3)nn2)cc1", "> 20 µM"),
    ("C=CC(=O)Nc1ccccc1-c1cn(C2CCN(Cc3ccc(-c4nc5ccccn5c4-c4ccccc4C)cc3)CC2)nn1", "> 20 µM"),
    ("C=CC(=O)Nc1ccc(-c2cn(C3CCN(Cc4ccc(-c5nc6ccccn6c5-c5ccccc5)cc4)CC3)nn2)cc1", "> 20 µM"),
    ("C=CC(=O)Nc1cccc(-c2cn(C3CCN(Cc4ccc(-c5nc6ccccn6c5-c5ccccc5)cc4)CC3)nn2)c1", "> 20 µM"),
    ("C=CC(=O)Nc1ccccc1-c1cn(C2CCN(Cc3ccc(-c4nc5ccccn5c4-c4ccccc4)cc3)CC2)nn1", "> 20 µM"),
]

Data request: Note down IC50 recorded for `COc1ccccc1-c1n[nH]c2nc(N[C@H]3CC[C@H](NS(=O)(=O)CCC(F)(F)F)CC3)nc(OC)c12`
Data returned: ≥ 20 µM

Data request: Note down IC50 recorded for `Cc1cc2c(cc1C)[n+](Cc1ccccc1Br)cn2Cc1ccc2c(c1)CCO2.[Br-]`
Data returned: > 500 µM

Data request: Note down IC50 recorded for `C=CC(=O)Nc1cccc(-c2cn(C3CCN(Cc4ccc(-c5nc6ccccn6c5-c5cccc(C)c5)cc4)CC3)nn2)c1`
Data returned: > 20 µM
